Tested on: P388 leukemia ip, CD2F1 mice, survival T/C
Test details: NCI In Vivo Anticancer Drug Screen. Data for tumor model P388 Leukemia (intraperitoneal) in CD2F1 (CDF1) mice
Test context: endpoint: median survival time; dose: 60.0 mg/kg/injection; schedule: Q01DX005 (ip); vehicle: saline with Tween-80; higher = longer survival
Inconclusive results and toxic doses are left out.
Endpoint: T/C

Here `c1ccc2c3c(ccc2c1)Oc1ccc2ccccc2c1C3CCC1c2c(ccc3ccccc23)Oc2ccc3ccccc3c21` was tested on P388 leukemia ip, CD2F1 mice, survival T/C, and its T/C came to 96 % of control

Here `Cc1nn(-c2ccccc2)nc1C(=O)Nc1ccccc1C(=O)NCC1CC1` was tested on P388 leukemia ip, CD2F1 mice, survival T/C, and its T/C came to 91 % of control

Here CC1COC(C)(C)P(c2ccccc2)C1 (configuration not stated) was tested on P388 leukemia ip, CD2F1 mice, survival T/C, and its T/C came to 102 % of control

Here O=C(c1ccccc1)c1ccccc1NCC(O)COc1cccc2ccccc12 (configuration not stated) was tested on P388 leukemia ip, CD2F1 mice, survival T/C, and its T/C came to 100 % of control

Here `Cn1c(=O)cc2n(C)c3ccccc3n2c1=O` was tested on P388 leukemia ip, CD2F1 mice, survival T/C, and its T/C came to 96 % of control

Here `COc1ccc(S(=O)(=O)N/N=C/c2cc([N+](=O)[O-])cc(I)c2O)cc1OC` was tested on P388 leukemia ip, CD2F1 mice, survival T/C, and its T/C came to 97 % of control

Here `CNCc1c(C)[nH]c2ccc(N(C)C)cc2c1=O` was tested on P388 leukemia ip, CD2F1 mice, survival T/C, and its T/C came to 101 % of control
